Entry source: patent US8299285B2

# assay.notes: Fluorescence spectroscopy of complexes 1-13
# Type: physicochemical
# condition.info: relative to complex 3; excited at 475 nm; 0.01 mmol solutions in DMSO
observed.property: Relative intensity
Write no unit; give the number alone.

Exercise: Which Relative intensity is reported for this molecule? CNC1=NN=C(C)C(C)=NN=C(NN)[S][Zn][S]1 [Complex 2, Zn[ATSM/A]]
Key: 0.10

Exercise: For the molecule shown here, CNC1=NN=C(C)C(C)=NN=C(N/N=C/c2cccc(/C=N/NC3=NN=C(C)C(C)=NN=C(NC)[S][Zn][S]3)c2)[S][Zn][S]1 [Complex 13, Zn2[ATSM/A-isopthalaldehyde-ZnATSM/A]] , give the reported Relative intensity.
Key: 2.65

Exercise: Value lookup for Relative intensity; key = CNC1=NN=C(C)C(C)=NN=C(N/N=C/c2c(O)ccc3ccccc23)[S][Zn][S]1 [Complex 6, Zn[ATSM/A-2-hydroxynaphthaldehyde]]
Key: 2.61

Exercise: // returns reported Relative intensity for input CNC1=NN=C(C)C(C)=NN=C(N/N=C/C(=O)c2ccccc2)[S][Zn][S]1 [Complex 9, Zn[ATSM/A-phenylglyoxal]]
Key: 0.19

Exercise: Quick one: Relative intensity for `CCCN(CCC)c1ccc(/C=N/NC2=NN=C(C)C(C)=NN=C(NC)[S][Zn][S]2)cc1` ?
Key: 2.85

Exercise: // returns reported Relative intensity for input CNC1=NN=C(C)C(C)=NN=C(N/N=C/C=N/NC2=NN=C(C)C(C)=NN=C(NC)[S][Zn][S]2)[S][Zn][S]1 [Complex 11, Zn2[ATSM/A-glyoxal-ATSM/A]]
Key: 2.46

* * *

Please provide measured fluorescence emission λmax /nm for the entries that follow.
# assay.notes: Fluorescence spectroscopy of complexes 1-13
# Assay type: physicochemical
# condition.info: excited at 475 nm; 0.01 mmol solutions in DMSO
Number in nm, nothing else.

Exercise: Query (compound): CNC1=NN=C(C)C(C)=NN=C(N/N=C/c2cccc(/C=N/NC3=NN=C(C)C(C)=NN=C(NC)[S][Zn][S]3)c2)[S][Zn][S]1 [Complex 13, Zn2[ATSM/A-isopthalaldehyde-ZnATSM/A]] ; field requested: fluorescence emission λmax /nm
Key: 567

Exercise: For the compound shown here, CNC1=NN=C(C)C(C)=NN=C(N/N=C/C(=O)c2ccccc2)[S][Zn][S]1 [Complex 9, Zn[ATSM/A-phenylglyoxal]] , give the reported fluorescence emission λmax /nm.
Key: 605

Exercise: For the compound shown here, CNC1=NN=C(C)C(C)=NN=C(N/N=C/c2ccco2)[S][Zn][S]1 [Complex 4, Zn[ATSM/A-2-furaldehyde]] , give the reported fluorescence emission λmax /nm.
Key: 551

Exercise: Can you look up the measured fluorescence emission λmax /nm of CNC1=NN=C(C)C(C)=NN=C(N/N=C/c2ccc(C=O)cc2)[S][Zn][S]1 [Complex 10, Zn[ATSM/A-terephthalaldehyde]] for me?
Key: 584

Exercise: I am curious: what fluorescence emission λmax /nm value has been reported for CNC1=NN=C(C)C(C)=NN=C(N/N=C/C=N/NC2=NN=C(C)C(C)=NN=C(NC)[S][Zn][S]2)[S][Zn][S]1 [Complex 11, Zn2[ATSM/A-glyoxal-ATSM/A]] ?
Key: 558

Exercise: Give its fluorescence emission λmax /nm value. Item: CNC1=NN=C(C)C(C)=NN=C(N/N=C/c2ccccc2)[S][Zn][S]1 [Complex 3, Zn[ATSM/A-benzaldehyde]]
Key: 553

Exercise: Suppose we examine the compound CNC1=NN=C(C)C(C)=NN=C(N/N=C/c2c(O)ccc3ccccc23)[S][Zn][S]1 [Complex 6, Zn[ATSM/A-2-hydroxynaphthaldehyde]] ; what fluorescence emission λmax /nm value has been reported?
Key: 558

Exercise: Please give the measured fluorescence emission λmax /nm for this compound: CCCN(CCC)c1ccc(/C=N/NC2=NN=C(C)C(C)=NN=C(NC)[S][Zn][S]2)cc1 [Complex 7]
Key: 578

Exercise: Using the record for CNC1=NN=C(C)C(C)=NN=C(NN)[S][Zn][S]1 [Complex 2, Zn[ATSM/A]] , report its fluorescence emission λmax /nm.
Key: 548

Exercise: Which value of fluorescence emission λmax /nm has been reported for CNC1=NN=C(C)C(C)=NN=C(N/N=C/c2ccccc2O)[S][Zn][S]1 [Complex 5, Zn[ATSM/A-salicylaldehyde]] in the records?
Key: 548

Exercise: Which fluorescence emission λmax /nm is reported for this compound? CNC1=NN=C(C)C(C)=NN=C(N/N=C(\C)C(C)=O)[S][Zn][S]1 [Complex 8, Zn[ATSM/A-butane-2,3-dione]]
Key: 561

* * *

# assay.notes: Fluorescence spectroscopy of complexes 1-13
# Format: physicochemical
# condition.info: relative to complex 3; excited at 475 nm; 0.01 mmol solutions in DMSO
observed.property: Relative intensity
Just the number, please, no unit after it.

Exercise: Fill in: Relative intensity of CNC1=NN=C(C)C(C)=NN=C(N/N=C/c2ccccc2O)[S][Zn][S]1 [Complex 5, Zn[ATSM/A-salicylaldehyde]] is ___
Key: 0.95

Exercise: Item CNC1=NN=C(C)C(C)=NN=C(N/N=C/c2ccccc2)[S][Zn][S]1 [Complex 3, Zn[ATSM/A-benzaldehyde]] has what recorded Relative intensity?
Key: 1.00

Exercise: Look up Relative intensity: CNC1=NN=C(C)C(C)=NN=C(N/N=C/c2ccco2)[S][Zn][S]1 [Complex 4, Zn[ATSM/A-2-furaldehyde]]
Key: 1.05

Exercise: Value lookup for Relative intensity; key = CNC1=NN=C(C)C(C)=NN=C(N/N=C(\C)C(C)=O)[S][Zn][S]1 [Complex 8, Zn[ATSM/A-butane-2,3-dione]]
Key: 0.33

Exercise: Could you share which Relative intensity value was measured for CNC1=NN=C(C)C(C)=NN=C(N/N=C/c2ccc(C=O)cc2)[S][Zn][S]1 [Complex 10, Zn[ATSM/A-terephthalaldehyde]] ?
Key: 0.23

* * *

# assay.notes: Fluorescence emission spectra of zinc bis(thiosemicarbazone) complexes (Zn[BTSCs])
# Assay type: physicochemical
# condition.info: peak (2), associated with the BTSC backbone
Please provide measured Fluorescence Emission λmax(2) for the entries that follow.
Expressed in nm, but write only the number.

Exercise: Fill in: Fluorescence Emission λmax(2) of C1=[N+]2N=C(Nc3ccccc3)[S][Zn-2]23[S]C(Nc2ccccc2)=N[N+]3=C1 [Zn[GTS(Ph)]] is ___
Key: 575

Exercise: Looking for the measured Fluorescence Emission λmax(2) of CNC([S-])=NN=CC=NN=C([S-])NC.[Zn+2] [Zn[GTS(Me)]] , can you help?
Key: 550

Exercise: State the recorded Fluorescence Emission λmax(2) for this entry: CCNC1=N[N+]2=CC=[N+]3N=C(NCC)[S][Zn-2]23[S]1 [Zn[GTS(Et)]]
Key: 550

Exercise: Item under review: CCNC1=N[N+]2=CC(c3ccccc3)=[N+]3N=C(NCC)[S][Zn-2]23[S]1 (stereo not shown) [Zn PGTS(Et), Zn [PGTS(Et)]] . Reported Fluorescence Emission λmax(2)?
Key: 567

* * *

# assay.notes: UV/Vis absorption of Zn[BTSCs]
# Type: physicochemical
# condition.info: third UV/vis absorption
observed.property: UV/Vis Absorption λmax(3) (nm)
Output spec: scalar in nm, unitless text.

Exercise: Endpoint output: UV/Vis Absorption λmax(3) of C1=[N+]2N=C(Nc3ccccc3)[S][Zn-2]23[S]C(Nc2ccccc2)=N[N+]3=C1 [Zn[GTS(Ph)]] . Value?
Key: 469

Exercise: Fill blank: measured UV/Vis Absorption λmax(3) of the molecule CCNC1=N[N+]2=CC=[N+]3N=C(NCC)[S][Zn-2]23[S]1 [Zn[GTS(Et)]] is ____.
Key: 445

Exercise: # lookup: UV/Vis Absorption λmax(3) of CCNC1=N[N+]2=CC(c3ccccc3)=[N+]3N=C(NCC)[S][Zn-2]23[S]1 (stereo not shown) [Zn PGTS(Et), Zn [PGTS(Et)]]
Key: 466

Exercise: Can you share its UV/Vis Absorption λmax(3)? I mean this molecule: CNC([S-])=NN=CC=NN=C([S-])NC.[Zn+2] [Zn[GTS(Me)]]
Key: 446

* * *

# assay.notes: UV/vis spectroscopy of complexes 1-13
# Type: physicochemical
# condition.info: molar absorption coefficient of the higher wavelength absorption peak; Beer-Lambert law
# Experimental: UV/Vis and fluorescence spectra were measured with a Perkin Elmer Lamda 19 spectrometer and a Hitachi F-4500 fluorescence spectrophotometer respectively. The optical properties of a range of mono- and binuclear complexes derived from Zn[ATSM/A] (see the table below) were measured by electronic absorption (UV/vis) and fluorescence spectroscopy. UV/vis spectroscopy: electronic absorption spectra were recorded in DMSO at 0.1, 0.01 and 0.001 mmol concentrations. […]
observed.property: ε (mol^-1 dm^3 cm^-1)

Exercise: May I ask what ε (mol^-1 dm^3 cm^-1) has been recorded for CNC1=NN=C(C)C(C)=NN=C(N/N=C/c2cccc(/C=N/NC3=NN=C(C)C(C)=NN=C(NC)[S][Zn][S]3)c2)[S][Zn][S]1 [Complex 13, Zn2[ATSM/A-isopthalaldehyde-ZnATSM/A]] ?
Key: 79475 mol^-1 dm^3 cm^-1

Exercise: What does the data say about its ε (mol^-1 dm^3 cm^-1)? Entry: CNC1=NN=C(C)C(C)=NN=C(N/N=C/c2ccco2)[S][Zn][S]1 [Complex 4, Zn[ATSM/A-2-furaldehyde]]
Key: 36939 mol^-1 dm^3 cm^-1

Exercise: Could you tell me which ε (mol^-1 dm^3 cm^-1) is on file for CNC1=NN=C(C)C(C)=NN=C(N/N=C/C=N/NC2=NN=C(C)C(C)=NN=C(NC)[S][Zn][S]2)[S][Zn][S]1 [Complex 11, Zn2[ATSM/A-glyoxal-ATSM/A]] ?
Key: 126450 mol^-1 dm^3 cm^-1

Exercise: Data request, read-out ε (mol^-1 dm^3 cm^-1), for CNC1=NN=C(C)C(C)=NN=C(N/N=C(\C)C(C)=O)[S][Zn][S]1 [Complex 8, Zn[ATSM/A-butane-2,3-dione]]
Key: 35594 mol^-1 dm^3 cm^-1

Exercise: Dear colleague, I am looking for the recorded ε (mol^-1 dm^3 cm^-1) of the following molecule: CNC1=NN=C(C)C(C)=NN=C(N/N=C/c2ccccc2)[S][Zn][S]1 [Complex 3, Zn[ATSM/A-benzaldehyde]]
Key: 40016 mol^-1 dm^3 cm^-1

Exercise: Name the reported ε (mol^-1 dm^3 cm^-1) value associated with the molecule CNC1=NN=C(C)C(C)=NN=C(NN)[S][Zn][S]1 [Complex 2, Zn[ATSM/A]]
Key: 29690 mol^-1 dm^3 cm^-1

Exercise: # input molecule: CNC1=NN=C(C)C(C)=NN=C(N/N=C/C(=O)c2ccccc2)[S][Zn][S]1 [Complex 9, Zn[ATSM/A-phenylglyoxal]] ; wanted: its ε (mol^-1 dm^3 cm^-1)
Key: 46157 mol^-1 dm^3 cm^-1

Exercise: Reported ε (mol^-1 dm^3 cm^-1) for CNC1=NN=C(C)C(C)=NN=C(N/N=C/c2ccccc2O)[S][Zn][S]1 [Complex 5, Zn[ATSM/A-salicylaldehyde]] : what is it?
Key: 51172 mol^-1 dm^3 cm^-1

Exercise: Query: ε (mol^-1 dm^3 cm^-1); subject: CNC1=NN=C(C)C(C)=NN=C(N/N=C/c2c(O)ccc3ccccc23)[S][Zn][S]1 [Complex 6, Zn[ATSM/A-2-hydroxynaphthaldehyde]]
Key: 62183 mol^-1 dm^3 cm^-1

Exercise: Fill in: ε (mol^-1 dm^3 cm^-1) of CNC1=NN=C(C)C(C)=NN=C(N/N=C/c2ccc(C=O)cc2)[S][Zn][S]1 [Complex 10, Zn[ATSM/A-terephthalaldehyde]] is ___
Key: 49912 mol^-1 dm^3 cm^-1

Exercise: Could you tell me which ε (mol^-1 dm^3 cm^-1) is on file for CCCN(CCC)c1ccc(/C=N/NC2=NN=C(C)C(C)=NN=C(NC)[S][Zn][S]2)cc1 [Complex 7] ?
Key: 75127 mol^-1 dm^3 cm^-1
